EXPERIMENT SUMMARY: Growth inhibition of human U87MG cells after 72 hrs by MTS-PMS assay
Format: functional, U-87MG ATCC
CONDITION INFO: U-87 MG
METRIC: GI50 (µM)
Answers are plain numbers, in µM.

These solved cases illustrate the format of a correct answer.
{"ITEM SMILES": "COc1ccc(C(=O)OC[C@@H](C)[C@H]2CC[C@H]3[C@@H](O)CCC[C@]23C)cc1", "GI50 (µM)": 33.1}
{"ITEM SMILES": "C[C@H](COC(=O)C1CCCCC1)[C@H]1CC[C@H]2[C@@H](O)CCC[C@]12C", "GI50 (µM)": 11.2}
{"ITEM SMILES": "CC(C)CC(=O)OC[C@@H](C)[C@H]1CC[C@H]2[C@@H](O)CCC[C@]12C", "GI50 (µM)": 56}

Give measured GI50 for every item shown.
1. C[C@H](CNC(=O)c1ccc(Cl)cc1)[C@H]1CC[C@H]2[C@@H](O)CCC[C@]12C
2. C[C@H](COC(=O)c1ccccc1)[C@H]1CC[C@H]2[C@@H](O)CCC[C@]12C

### Response
1. 42.9
2. 24.6

### Prompt Indicate its recorded GI50; the compound in question is C[C@H](COC(=O)c1cccc(O)c1)[C@H]1CC[C@H]2[C@@H](O)CCC[C@]12C
### Response 76.9

---

Tested on: HT-29
EXPERIMENT SUMMARY: Growth inhibition of human HT-29 cells after 72 hrs by MTS-PMS assay
Assay type: functional
CONDITION INFO: HT-29, 72 h
For each record, write down the corresponding GI50.

These solved cases illustrate the format of a correct answer.
{"ITEM SMILES": "C[C@H](COC(=O)c1ccccn1)[C@H]1CC[C@H]2[C@@H](O)CCC[C@]12C", "METRIC": "GI50", "ENDPOINT VALUE": "> 100 µM"}
{"ITEM SMILES": "C[C@H](CN)[C@H]1CC[C@H]2[C@@H](O)CCC[C@]12C", "METRIC": "GI50", "ENDPOINT VALUE": "> 100 µM"}

Here's the next entry for you.
### Prompt Specify the recorded GI50 for C[C@H](COC(=O)c1ccco1)[C@H]1CC[C@H]2[C@@H](O)CCC[C@]12C , system: HT-29.
### Response > 100 µM

---

System: HT-29
EXPERIMENT SUMMARY: Growth inhibition of human HT-29 cells after 72 hrs by MTS-PMS assay
Format: functional
CONDITION INFO: HT-29, 72 h
GI50 vs 30 µM: less than gives t; not less than gives f.

Examples with answers:
{"ITEM SMILES": "C[C@H](COC(=O)c1ccccc1)[C@H]1CC[C@H]2[C@@H](OC(=O)c3ccccc3)CCC[C@]12C", "DISCRETE LABEL": "f"}
{"ITEM SMILES": "C[C@H](COC(=O)c1ccncc1)[C@H]1CC[C@H]2[C@@H](O)CCC[C@]12C", "DISCRETE LABEL": "f"}
{"ITEM SMILES": "C[C@H](CNC(=O)c1ccc(Cl)cc1)[C@H]1CC[C@H]2[C@@H](O)CCC[C@]12C", "DISCRETE LABEL": "f"}
{"ITEM SMILES": "C[C@H](COC(=O)c1cccc2ccccc12)[C@H]1CC[C@H]2[C@@H](O)CCC[C@]12C", "DISCRETE LABEL": "f"}
{"ITEM SMILES": "C[C@H](COC(=O)C(C)(C)C)[C@H]1CC[C@H]2[C@@H](O)CCC[C@]12C", "DISCRETE LABEL": "t"}
{"ITEM SMILES": "C[C@H](COC(=O)c1ccccc1Cl)[C@H]1CC[C@H]2[C@@H](O)CCC[C@]12C", "DISCRETE LABEL": "t"}
{"ITEM SMILES": "C[C@H](CNC(=O)C1CCCCC1)[C@H]1CC[C@H]2[C@@H](O)CCC[C@]12C", "DISCRETE LABEL": "f"}
{"ITEM SMILES": "COc1ccccc1C(=O)OC[C@@H](C)[C@H]1CC[C@H]2[C@@H](O)CCC[C@]12C", "DISCRETE LABEL": "f"}

### Prompt Here's an entry: C[C@H](COC(=O)c1cccc(Cl)c1)[C@H]1CC[C@H]2[C@@H](O)CCC[C@]12C . Is its GI50 below 30 µM?
### Response t

### Prompt Here's an entry: C[C@H](COC(=O)c1ccccc1)[C@H]1CC[C@H]2[C@@H](O)CCC[C@]12C . Is its GI50 below 30 µM?
### Response t

These data points were gathered from ChEMBL document CHEMBL2424656.
